target: Human A2A receptor (Homo sapiens)
Sequence (P29274 whole entry): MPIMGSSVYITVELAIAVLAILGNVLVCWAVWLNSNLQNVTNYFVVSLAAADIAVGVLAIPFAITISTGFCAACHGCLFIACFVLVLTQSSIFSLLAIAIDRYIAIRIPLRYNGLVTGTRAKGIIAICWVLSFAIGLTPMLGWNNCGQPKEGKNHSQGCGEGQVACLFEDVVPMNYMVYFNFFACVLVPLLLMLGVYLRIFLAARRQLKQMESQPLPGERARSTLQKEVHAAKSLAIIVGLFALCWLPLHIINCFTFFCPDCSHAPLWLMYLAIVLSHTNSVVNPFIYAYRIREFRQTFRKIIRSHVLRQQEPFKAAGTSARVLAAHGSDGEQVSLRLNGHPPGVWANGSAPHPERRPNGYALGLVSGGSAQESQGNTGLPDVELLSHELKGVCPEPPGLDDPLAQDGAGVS
pIC50: −log10 of the molar value. Where a name gives a salt, the structure may show the parent alone.
readout.name: pIC50

[
  {
    "molecule": "O=c1[nH]c2ccc(N3CCOCC3)cc2n2cc(-c3ccccc3)cc12 [Example 11, trifluoroacetic acid salt]",
    "result": "< 5.00"
  }
]

// next item, pIC50 requested
Human A2A receptor (Homo sapiens) pIC50 of O=c1[nH]c2ccccc2n2cc(-c3ccccc3)cc12 is < 5.00

----------
readout.name: melting point (°C)

Solved entries (count: 2):
[
  {
    "chemical.string": "c1ccc(CCNc2nc3ccccc3n3cc(-c4ccccc4)cc23)cc1",
    "value.units": "°C",
    "quantitative.readout": 126
  },
  {
    "chemical.string": "c1ccc(Nc2nc3ccccc3n3cc(-c4ccccc4)cc23)cc1",
    "value.units": "°C",
    "quantitative.readout": 172
  }
]

(P) CSc1nc2ccccc2n2cc(-c3ccccc3)cc12
(Q) O=c1[nH]c2ccc(Cl)cc2n2cc(-c3ccccc3)cc12
Task for the reader: decide whether P or Q has the larger melting point. When you have decided, please share the label of that item.
Q
(Q: 346 °C, P: 132 °C)

----------
readout.name: melting point

Solved entries (count: 4):
[
  {
    "chemical.string": "O=c1[nH]c2ccccc2n2cc(-c3ccccc3)cc12",
    "melting point": "301 to 303 °C"
  },
  {
    "chemical.string": "O=C(O)C(F)(F)F.O=c1[nH]c2ccc(OCCN3CCOCC3)cc2n2cc(-c3ccccc3)cc12",
    "melting point": "190 to 200 °C"
  },
  {
    "chemical.string": "CN(C)c1nc2ccccc2n2cc(-c3ccccc3)cc12",
    "melting point": "109 to 111 °C"
  },
  {
    "chemical.string": "CCNc1nc2ccccc2n2cc(-c3ccccc3)cc12.Cl",
    "melting point": "299 to 301 °C"
  }
]

Value of melting point reported for the molecule COc1ccc(-c2cc3c(=O)[nH]c4ccccc4n3c2)cc1 is 327 to 332 °C

----------
Biological target: Human A3 receptor (Homo sapiens)
Sequence (P0DMS8 1-318): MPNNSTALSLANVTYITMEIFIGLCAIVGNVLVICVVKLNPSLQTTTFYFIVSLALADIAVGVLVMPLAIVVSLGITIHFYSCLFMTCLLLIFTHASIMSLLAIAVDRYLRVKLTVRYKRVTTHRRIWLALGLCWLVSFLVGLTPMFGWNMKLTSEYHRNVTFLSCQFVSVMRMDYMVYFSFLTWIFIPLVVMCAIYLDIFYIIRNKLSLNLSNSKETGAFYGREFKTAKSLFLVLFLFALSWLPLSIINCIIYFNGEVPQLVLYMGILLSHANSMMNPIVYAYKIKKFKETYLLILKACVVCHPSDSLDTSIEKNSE
readout.name: IC50 (nM)

[
  {
    "compound": "O=c1[nH]c2ccc(NCCCN3CCOCC3)cc2n2cc(-c3ccccc3)cc12 [Example 15]",
    "value.units": "nM",
    "IC50": 3.1
  }
]

(P) O=C(O)C(F)(F)F.O=c1[nH]c2ccc(OCCN3CCOCC3)cc2n2cc(-c3ccccc3)cc12 [Example 17, trifluoroacetic acid salt]
(Q) O=c1[nH]c2ccccc2n2cc(-c3ccccc3)cc12 [Example 1]
For the pair P and Q , which entry has the numerically smaller recorded IC50? When you have decided, please share the label of that item.
P
(P: 3.5 nM, Q: 9.3 nM)
